assayed system: T1, human TL1A extracellular domain with N-terminal HIS and FLAG tag (human, UniProt O95150 72-251)
T1 construct: whole entry named. ~70 kDa fraction purified by gel filtration
T1 sequence: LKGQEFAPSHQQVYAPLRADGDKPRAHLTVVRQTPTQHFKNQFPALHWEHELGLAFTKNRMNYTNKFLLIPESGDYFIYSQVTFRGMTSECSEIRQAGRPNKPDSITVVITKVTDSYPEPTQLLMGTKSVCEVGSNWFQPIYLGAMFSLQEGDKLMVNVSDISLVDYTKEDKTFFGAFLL
assay method text: SPR run 3; supernatant on Protein A; TL1A 10 ug/mL; timepoint 590
reported endpoint: TL1A Binding Level (Late) (RU)

1) 320-265 (antibody, human IgG1, name in Kabat numbering, V domains shown, human IgG1, lambda) VH: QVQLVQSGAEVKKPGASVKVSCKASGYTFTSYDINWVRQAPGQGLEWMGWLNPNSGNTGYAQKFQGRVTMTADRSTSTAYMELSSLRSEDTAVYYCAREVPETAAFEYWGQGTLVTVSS VL: QSVLTQPPSVSGAPGQRVTISCTSSSSDIGWGLGVHWYQQLPGTAPKLLIEGYYNRPSGVPDRFSGSKSGTSASLTITGLLPEDEGDYYCQSYDGTLSALFGGGTKLTVLG : 69
2) 320-256 (antibody, human IgG1, name in Kabat numbering, V domains shown, human IgG1, lambda) VH: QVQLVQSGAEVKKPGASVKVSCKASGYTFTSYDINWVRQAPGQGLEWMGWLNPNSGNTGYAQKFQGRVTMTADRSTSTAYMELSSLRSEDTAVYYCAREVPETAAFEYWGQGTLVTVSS VL: QSVLTQPPSVSGAPGQRVTISCTSSSSDILAGLGVHWYQQLPGTAPKLLIEGYYNRPSGVPDRFSGSKSGTSASLTITGLLPEDEGDYYCQSYDGTLSALFGGGTKLTVLG : 10
3) 320-275 (antibody, human IgG1, name in Kabat numbering, V domains shown, human IgG1, lambda) VH: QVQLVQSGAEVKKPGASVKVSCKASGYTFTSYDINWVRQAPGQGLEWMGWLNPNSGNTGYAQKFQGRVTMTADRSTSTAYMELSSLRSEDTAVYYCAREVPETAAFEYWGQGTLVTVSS VL: QSVLTQPPSVSGAPGQRVTISCTSSSSDIGAYLGVHWYQQLPGTAPKLLIEGYYNRPSGVPDRFSGSKSGTSASLTITGLLPEDEGDYYCQSYDGTLSALFGGGTKLTVLG : 10
